TEST_SUMMARY: xn = mol fraction of the nth substance listed, in the solute-free solvent
SETTINGS: 298.15 K; x2 = 0.1666
MEASUREMENT_LABEL: solubility (g/100 g solution)

Worked set:
COMPOUND	VALUE_REPORTED
c1ccc(-c2ccc(C(c3ccccc3)n3ccnc3)cc2)cc1 (centres undefined) + CCCO + O	0.884
Nc1nc2ccc(OC(F)(F)F)cc2s1 + CCCO + O	24

1 = c1ccc(-c2ccc(C(c3ccccc3)n3ccnc3)cc2)cc1 (centres undefined) + CC(C)O + O
2 = CC1CCC2C(C)C(OC(=O)CCC(=O)O)OC3OC4(C)CCC1C32OO4 (centres undefined) + CC(C)O + O
(Q) Which of these two has the smaller recorded solubility (g/100 g solution): 1 or 2 ? Field: selected label. Fill in the label of the entry you choose.
(A) 1
(1: 0.849, 2: 1.68)
